Assignment: determine reported TGI for the given molecules.
# Test system: KM12 colon
# METHOD: NCI tumour cell line growth inhibition, 48 h
Just the number please, in µM, no unit attached.

(Q) Lookup: TGI / KM12 colon / `C=CCOC(=O)c1c(C)n([O-])c2cc(Cl)c(Cl)cc2[n+]1=O`
(A) 84.7

(Q) # get_value(readout= TGI, system= KM12 colon) for `CCCCCCCN(CCCCCCC)C(=N)c1ccnc2ccccc12`
(A) 3.49

(Q) Tell me reported TGI for CC(C)(C)c1cc(C(=O)C2Cc3ccccc3C(=O)O2)cc(C(C)(C)C)c1O (stereo not given) , tested with KM12 colon.
(A) 32.1

(Q) // lookup TGI | system=KM12 colon | key= `C=C1C(=O)O[C@H]2[C@H]1CC/C(Cn1cc(Cc3c[nH]c4ccccc34)nn1)=C\CC[C@@]1(C)O[C@@H]21`
(A) 4.99

(Q) Request body: readout TGI, system KM12 colon, query COc1cccc2c1C(=O)c1c(O)c3c(c(O)c1C2=O)C[C@@](O)(C(C)=O)C[C@@H]3OC1CC([N+]([O-])(Cc2ccccc2)Cc2ccccc2)C(O)C(C)O1 (stereo not given in full) . Return the value.
(A) 2.9

(Q) Any idea what TGI came out for `CCCCC[C@H]1CC=C2C(=O)C=C[C@@H]2CC=CCCCC(=O)O[C@@H](CCCCC)CC=C2C(=O)C=C[C@@H]2CC=CCCCC(=O)O[C@@H](CCCCC)CC=C2C(=O)C=C[C@@H]2CC=CCCCC(=O)O1` on KM12 colon?
(A) 1.22

(Q) Recall the recorded TGI for `N/C(=N\S(=O)(=O)c1ccc(-c2ccccn2)s1)Nc1ccc(Cl)cc1` with KM12 colon and state it.
(A) 70.4

(Q) API: value(readout= TGI, system= KM12 colon, query= `O=C(NC12CC3CC(CC(C3)C1)C2)C(=O)c1c[nH]c2ccc(Br)cc12` )
(A) 41.7

* * *

# Tested on: NCI-H23 lung
# METHOD: NCI tumour cell line growth inhibition, 48 h
QUANTITY: TGI

(Q) Give its TGI value. Item: CC(=Nc1ccccc1)C1=C(O)C(Cc2cccc(F)c2)NC1=O (configuration not stated)
(A) > 100 µM

(Q) Entry `O=C1Nc2ccccc2/C1=C\c1cccc(/C=C2/C(=O)Nc3ccccc32)n1` : reported TGI = ?
(A) 2.43 µM

(Q) Request the reported TGI associated with `COc1ccc(OC)c(NC(=O)c2cccc(NC3=C(Cl)C(=O)N(Cc4ccccc4)C3=O)c2)c1`
(A) > 100 µM

(Q) Endpoint output: TGI of `CNC(=O)c1cc2nc3ccccc3c(=O)n2c2ccccc12` . Value?
(A) > 10 µM

(Q) What TGI value was documented for this compound, `C=C1C(=O)O[C@H]2[C@H]1CC/C(Cn1cc(Cc3c[nH]c4ccccc34)nn1)=C\CC[C@@]1(C)O[C@@H]21` ?
(A) 4.56 µM

(Q) Entry under review: CC1(C)OC2CC3COC(=O)C3CC2O1 (configuration not stated) . Reported TGI?
(A) > 100 µM

(Q) Please report the recorded TGI for Cc1c(N)nc([C@H](CC(N)=O)NC[C@H](N)C(N)=O)nc1C(=O)N[C@H](C(=O)N[C@H](C)[C@@H](O)CC(=O)N[C@H](C(=O)NC(O[C@@H]1O[C@@H](C)[C@@H](N)[C@@H](O)[C@H]1O)C(O)c1nc(-c2nc(C(=O)NCCCCN)cs2)cs1)[C@@H](C)O)[C@@H](O[C@@H]1O[C@@H](CO)[C@@H](O)[C@H](O)[C@@H]1O[C@H]1O[C@H](CO)[C@@H](O)[C@H](OC(N)=O)[C@@H]1O)c1c[nH]cn1 (some centres not stated) .
(A) > 50 µM

Sourced from PubChem BioAssay (NCI)
